- method_summary: Human HepG2 cell viability assay in 384 well format
- Format: toxicity, cell-based
- Set-up: dose 125 nL, time 70.5 hour; concentration not given beside the values
- conditions_used: HepG2 cells, read-out: Inhibition
Reported cytotoxicity at 70.5 h values for the following compounds.
API: value field is a number in %; no unit string.

Worked cases, answers included:
compound	experimental_endpoint	display_unit	value_reported
O=C1CC2(CNCCN(C(=O)Nc3ccccc3)C2)CN1 (centres undefined)	cytotoxicity at 70.5 h	%	-9.89
O=C(c1cc[nH]n1)N1CC[C@@H]2CN(Cc3cccnc3)S(=O)(=O)[C@@H]2CC1	cytotoxicity at 70.5 h	%	-1.58
O=C(NCc1cccnc1-n1cncn1)c1ccncc1	cytotoxicity at 70.5 h	%	-4.72
CS(=O)(=O)c1cc(C(=O)NS(=O)(=O)Cc2ccc(F)cc2)ccc1Cl	cytotoxicity at 70.5 h	%	-3.9
Cc1ccc(CN2CC[C@H]3C[C@H](C(=O)N(C)C)O[C@H]3C2)cc1	cytotoxicity at 70.5 h	%	-17.2
CC(C)c1n[nH]c(C(=O)Nc2ccncc2)c1Br	cytotoxicity at 70.5 h	%	3.41

For CC(CC(=O)N1CCN(c2cnccn2)CC1)c1ccc(F)cc1 (centres undefined) , what is its reported cytotoxicity at 70.5 h?
0.499

For O=C(c1ccco1)N1CCCC(c2cc(C(F)(F)F)n3ncnc3n2)C1 (centres undefined) , what is its reported cytotoxicity at 70.5 h?
28.3

Reference source for all entries: ChEMBL document CHEMBL3507680
